molecular target: T1, human IgE (human, UniProt P01854 1-428); assay: ELISA, clone lysate on IgE-coated plate
T1 construct: written under the same molecule; also called IgE (Abcam ab65866); soluble IgE
T1 sequence (P01854 other isoform, or with tags, fused parts or gaps limits assumed, form in doubt): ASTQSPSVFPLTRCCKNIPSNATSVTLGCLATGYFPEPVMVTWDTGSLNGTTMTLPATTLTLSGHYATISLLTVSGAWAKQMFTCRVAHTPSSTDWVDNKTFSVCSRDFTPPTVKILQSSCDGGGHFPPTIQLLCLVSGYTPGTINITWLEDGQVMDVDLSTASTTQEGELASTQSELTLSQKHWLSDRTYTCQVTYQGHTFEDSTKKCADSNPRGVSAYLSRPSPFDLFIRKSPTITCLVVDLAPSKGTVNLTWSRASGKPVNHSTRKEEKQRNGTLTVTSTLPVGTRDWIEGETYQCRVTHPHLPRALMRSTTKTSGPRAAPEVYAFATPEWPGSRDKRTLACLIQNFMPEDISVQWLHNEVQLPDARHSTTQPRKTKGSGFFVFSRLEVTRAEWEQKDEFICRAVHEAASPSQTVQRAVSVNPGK
recorded metric: R1 Screening OD450

3-1H1 (VHH, also called hzB10v40 VHH, CDR1 site 3 T to I) VHH: EVQLLESGGGEVQPGGSLRLSCVASGLIFSSYNMGWLRQAPGKEREFVGLSGSSSTSTYYAESVKGRFTISRDNAKNTVYLQMTSLRAEDTAVYYCAARRLLSTYWSDRSWDFWGQGTLVTVEP | 0.857
44C1 (VHH) VHH: EVQLLESGGGEVQPGGSLRLSCVASGLTFSSYNMGWLRQAPGKEREFVGLSGSSSTSTYYAESVKGRFTISRDNAKNTVYLQMTSLRAEDTAVYYCAARRLLSTYWSDRSWDMWGQGTLVTVEP | 1.06
5H11 (VHH, also called hzB10v40 VHH, CDR1 site 5 S to R) VHH: EVQLLESGGGEVQPGGSLRLSCVASGLTFRSYNMGWLRQAPGKEREFVGLSGSSSTSTYYAESVKGRFTISRDNAKNTVYLQMTSLRAEDTAVYYCAARRLLSTYWSDRSWDFWGQGTLVTVEP | 0.893
33-2C4 (VHH) VHH: EVQLLESGGGEVQPGGSLRLSCVASGLTFSSYNMGWLRQAPGKEREFVGLSGSSSTSTYYAESVKGRFTISRDNAKNTVYLQMTSLRAEDTAVYYCAARRLFSTYWSDRSWDFWGQGTLVTVEP | 1
